test: probe aNOTCH3 binding on compound microarray – biochemical, small-molecule microarray, 635/667 nm fluorescence, primary screen (AID 1120);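 further: probe is a biotin-tagged antibody raised against NOTCH3 rather than NOTCH3 protein; score merges spot fluorescence near 667 nm with spot signal to noise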
run.parameters: higher = more signal
endpoint: composite z-score

C#CCOc1ccc(C[C@@H](C(=O)OC)N(CC#C)[C@@H](/C=C/C2CC2)[C@H](O)Cc2ccccc2)cc1 : -0.19
O=C1NC(=O)C2C1C=CC(C(O)c1ccc(I)cc1)N2Nc1ccccn1 (stereo not given) : -0.0677
OB1C=CCC(CCc2ccccc2)O1 (stereo not given) : -0.191
Cc1ccc([C@H]2C(C(=O)O)=CCN2S(=O)(=O)c2ccc(C)cc2)cc1 : -0.0299
O=C1[C@H]2C=C(Br)[C@H](C[C@@H]2OCCCCCCO)[C@@]12CO2 : 0.265

###

test: blood-stage malaria parasite viability loss – strain 3D7, DAPI fluorescence, 100 nL, primary screen (AID 1184);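 further: parasites grown inside human red blood cells in medium with human serum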
run.parameters: P. falciparum 3D7 growth, 3 d, higher = more signal
Listed next: entries and their corresponding z-score.
endpoint: z-score

O=C1NC(=O)C2C1C=CC(C(O)c1ccc(I)cc1)N2Nc1ccc(Cl)cc1Cl (stereo unspecified) : 0.692
COC(=O)[C@@]1(Cc2ccc(F)cc2)[C@H]2c3cc(C(=O)N(C)C)n(Cc4cc(C)n(C)n4)c3C[C@H]2CN1C(=O)c1ccccc1 : -0.358
COc1ccccc1CN1C(=O)c2ccccc2[C@@H](C(=O)NCc2ccccc2)[C@@H]1c1ccc(CO)cc1 : -1.45
CC(=O)n1cc(C(O)C2C=CC3C(=O)NC(=O)C3N2Nc2ccccn2)c2ccccc21 (stereo unspecified) : 0.249
CCCC[C@H]1C[C@@H]1[C@@H]1N(P(=O)(c2ccccc2)c2ccccc2)C[C@@](O)(c2ccccc2)CC12CC2 : -1.22
COc1ccc(C(O)C2C=CC3C(=O)N(C)C(=O)C3N2NC(=O)OC(C)(C)C)c2ccccc12 (stereo unspecified) : -0.526
CCOC(=O)C1=CC[C@H]2C(=O)N(c3ccccc3)C(=O)[C@@H]12 : -0.55
CC(C)(C)OC(=O)CC[C@]1(C(N)=O)N=C(c2ccc(OCCCO)cc2)O[C@H]1c1ccccc1 : 0.404
CCN(CC)c1ccc(N2CC=CC34O[C@@H]5/C=C\CCC(C)OC(=O)C5[C@H]3C(=O)N(CCCCCO)[C@@H]4C2=O)cc1 (stereo partly specified) : -0.0194
CS(=O)(=O)CCOC(=O)C1=CC(CCCO)=CC(C2CC2)N(Cc2cc3c(cc2Br)OCO3)C=C1C(=O)OCCS(C)(=O)=O (stereo unspecified) : -2.58
CCCNC(=O)[C@@H]1c2ccccc2C(=O)N(Cc2ccccc2OC)[C@H]1c1ccc(CO)cc1 : -1.54
COC(=O)[C@@]1(Cc2ccccc2)[C@H]2c3cc(C(=O)N4CCCC4)n(Cc4c(CO)[nH]cc(C)c4=O)c3C[C@H]2CN1C(=O)c1ccccc1 : -1.46
COC(=O)c1c2oc(c1C(=O)OC)C(=O)NC1(CCCCC1)c1cn(nn1)C[C@H](Cc1ccccc1)NC(=O)N[C@H](CO)CC2 : 0.196
COc1ccc(C(=O)Nc2ccc(CN3C(=O)[C@]4(O[C@H](CC(=O)N5CCC[C@H]5CO)[C@@H]([Si](C)(C)c5ccc(OC)cc5)[C@@H]4C)c4ccccc43)cc2)cc1 : 0.0279
COc1ccc([Si](C)(C)[C@@H]2[C@@H](CCO)O[C@]3(C(=O)N(Cc4cccc(N5CCOC5=O)c4)c4ccccc43)[C@H]2C)cc1 : -2.54
O=C(O)[C@H](Cc1ccccc1)n1cc(-c2ccccc2)nn1 : 0.0447
C=CC[C@@]1(C(=O)N2CCCCC2)N=C(c2ccc(OCCCO)cc2)O[C@@H]1c1ccccc1N=[N+]=[N-] : -1.94
CCCCCCCCCCC(O)C1C=CC2C(=O)NC(=O)C2N1Nc1ccc(Cl)cc1Cl (stereo unspecified) : -0.642
CCCC=C(CCC)[C@@H](NC(=O)OCC(C)C)c1ccccc1 : -1.02
C=CCN1Cc2ccccc2[C@@H]2OC(c3ccc(OCCCO)cc3)=N[C@]2(CCS(=O)(=O)c2ccccc2)C1=O : -2.3
CC(C)CNC(=O)[C@@]1(Cc2ccccc2I)c2ccccc2C(=O)N(Cc2ccccc2C(F)(F)F)[C@H]1c1ccc(CO)cc1 : -0.538
O=C(O)C1N=C(c2ccc(OCCCO)cc2)N(c2ccccc2)O1 (stereo unspecified) : -0.112
O=C1O[C@@H](c2ccccc2)[C@@H](c2ccccc2)N2[C@@H](c3ccccc3OCCO)[C@]3(C(=O)Nc4ccc(C#CC5(O)CCCCCC5)cc43)[C@@H](C(=O)N3CCN(c4ncccn4)CC3)[C@H]12 : -2.17
CC(=O)Nc1cc(Br)ccc1C(=O)NCc1ccccc1 : 1.3
COc1ccc(C#Cc2ccc3c(c2)[C@]2(C(=O)N3)[C@H](c3ccc(O)cc3)N3[C@H](c4ccccc4)[C@H](c4ccccc4)OC(=O)[C@H]3[C@@H]2C(=O)N2CCc3cc(OC)c(OC)cc3C2)cc1 : -2
COC(=O)c1c(CC[C@@H](CO)NC(=O)N[C@@H](Cc2ccccc2)Cn2cc(-c3ccccn3)nn2)oc(C(=O)N2CCOCC2)c1C(=O)OC : -0.671
O=C1[C@H]2C=C(Br)[C@H](C[C@@H]2OCCCCCCO)[C@@]12CO2 : -0.355
Cc1ccc(S[C@]2(C(=O)NCC(C)C)CC(=O)N(Cc3cc(C(F)(F)F)cc(C(F)(F)F)c3)[C@@H]2c2ccc(CO)cc2)cc1 : -0.309
CCCCC(=C=CC[C@@H](O)c1cccc(OCCO)c1)C[C@@H](O)c1ccccn1 : -0.12
O=C1C2C=CC(C(O)c3ccc(F)cc3)N(Nc3ccc([N+](=O)[O-])cc3)C2C(=O)N1c1ccccc1 (stereo unspecified) : -0.255
COc1cc2c(cc1O)C(c1cccs1)N(Cc1ccc([N+](=O)[O-])o1)CC2 (stereo unspecified) : -0.316

Cited source for all entries: PubChem BioAssay
